FYI, the data here is from paper PMC12416549.

Molecular target: T1, TNFR1 (Homo sapiens, UniProt P19438)
T1 chain: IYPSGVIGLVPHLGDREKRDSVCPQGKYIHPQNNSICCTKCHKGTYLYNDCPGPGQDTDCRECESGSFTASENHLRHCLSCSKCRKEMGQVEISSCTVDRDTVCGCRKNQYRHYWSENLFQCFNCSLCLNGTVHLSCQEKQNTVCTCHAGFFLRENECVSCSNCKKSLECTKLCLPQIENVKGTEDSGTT
Assay: yeast display SC50
OUTCOME MEASURE: apparent Kd (screen) (nM)

[1] A105D (designed binder) SMEEEVEKAAKEYEKKKKEAIEKHLEKLKAKDKEAAERFLKELEEAAKEYAKDEAKTMSEEEAKRRAKKYKEKVLLSELSEEEQKEIKEAEEKLVRTILKYVEEDAK
[2] M2Q (designed binder) SQEEEVEKAAKEYEKKKKEAIEKHLEKLKAKDKEAAERFLKELEEAAKEYAKDEAKTMSEEEAKRRAKKYKEKVLLSELSEEEQKEIKEAEEKLVRTILKYVEEAAK
QUERY: Between these two entries, 1 and 2 , state which has the higher apparent Kd (screen). When you have decided, please share the label of that item.
RESULT: 2
(2: 0.869 nM, 1: 0.446 nM)
